What pIC50 was measured for each of the following?
pIC50: −log10 of the molar value.

Tested system USP28 (Homo sapiens (Human), UniProt Q96RU2); pIC50 recorded for Cc1ccc2c(N)c(C(=O)NCCc3cc(F)c(N4CC5CCC(C4)N5)c(F)c3)sc2n1 was > 6.70

Field pIC50 (USP28 (Homo sapiens (Human), UniProt Q96RU2)), entry CCN[C@@H]1CCN(c2ccc(CCNC(=O)c3sc4nc(C)ccc4c3N)cc2)C1 : 5.70 to 6.70

Here Cc1ccc2c(N)c(C(=O)N[C@H]3C[C@@H](c4ccc(N5CCNCC5)cc4)C3)sc2n1 was tested on USP28 (Homo sapiens (Human), UniProt Q96RU2), and its pIC50 came to 5.70 to 6.70

Fill in: USP28 (Homo sapiens (Human), UniProt Q96RU2) pIC50 for Cc1ccc2c(N)c(C(=O)NC[C@@H](C)c3ccc(N4CC5CCC(C4)N5)cc3F)sc2n1 (single isomer, unassigned) = 5.70 to 6.70

Test item Cc1cc2c(N)c(C(=O)NCCc3ccc(N4CCNCC4)cc3)sc2nc1C ; USP28 (Homo sapiens (Human), UniProt Q96RU2); reported pIC50 was 5.70 to 6.70

Lab entry: USP28 (Homo sapiens (Human), UniProt Q96RU2) assay, compound Nc1c(C(=O)NCCc2ccc(N3CCNCC3)cc2)sc2nc(CO)ccc12 , pIC50 = 5.70 to 6.70

The compound CNc1ccc2c(N)c(C(=O)NCCc3ccc(C4CCNCC4)cc3)sc2n1 on USP28 (Homo sapiens (Human), UniProt Q96RU2): pIC50 was 5.70 to 6.70

The observed pIC50 for CCc1ccc2c(N)c(C(=O)NCCc3cc(F)c(N4CCNCC4)cc3F)sc2n1 when tested with USP28 (Homo sapiens (Human), UniProt Q96RU2) stands at > 6.70

---

For each entry below, report its pIC50 value.
biological target: USP25 (Homo sapiens (Human), UniProt Q9UHP3)
Sequence (Q9UHP3 whole entry): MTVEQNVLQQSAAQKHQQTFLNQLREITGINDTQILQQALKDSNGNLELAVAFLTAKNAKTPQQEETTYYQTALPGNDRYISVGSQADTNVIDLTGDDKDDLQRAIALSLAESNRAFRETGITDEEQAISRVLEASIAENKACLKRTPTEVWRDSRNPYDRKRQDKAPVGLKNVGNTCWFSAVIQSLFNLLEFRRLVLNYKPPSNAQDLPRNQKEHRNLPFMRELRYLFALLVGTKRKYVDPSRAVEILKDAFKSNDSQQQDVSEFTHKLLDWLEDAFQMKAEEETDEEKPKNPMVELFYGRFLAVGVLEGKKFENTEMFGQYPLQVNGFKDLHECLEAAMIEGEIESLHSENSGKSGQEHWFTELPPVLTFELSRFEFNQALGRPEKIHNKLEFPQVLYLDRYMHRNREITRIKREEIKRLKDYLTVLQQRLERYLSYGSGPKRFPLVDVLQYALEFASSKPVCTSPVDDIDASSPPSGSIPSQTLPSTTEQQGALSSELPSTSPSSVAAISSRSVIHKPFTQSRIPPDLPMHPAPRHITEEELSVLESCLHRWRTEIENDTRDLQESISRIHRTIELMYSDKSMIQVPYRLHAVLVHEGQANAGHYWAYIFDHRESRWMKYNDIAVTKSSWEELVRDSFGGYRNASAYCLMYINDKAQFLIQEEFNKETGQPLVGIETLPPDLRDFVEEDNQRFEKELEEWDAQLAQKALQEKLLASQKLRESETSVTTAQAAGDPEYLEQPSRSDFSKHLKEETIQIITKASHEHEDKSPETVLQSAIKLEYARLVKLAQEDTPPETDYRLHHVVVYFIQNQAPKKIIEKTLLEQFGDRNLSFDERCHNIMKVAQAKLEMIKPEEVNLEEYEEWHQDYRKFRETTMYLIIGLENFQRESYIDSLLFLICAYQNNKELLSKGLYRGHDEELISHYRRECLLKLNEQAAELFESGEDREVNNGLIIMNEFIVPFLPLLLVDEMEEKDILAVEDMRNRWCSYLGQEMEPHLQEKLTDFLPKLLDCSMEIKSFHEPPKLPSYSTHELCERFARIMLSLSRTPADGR
pIC50: −log10 of the molar value.

Lookup result for Cc1ccc2c(N)c(C(=O)NCCc3ccc(C4CCNCC4)cc3)sc2n1 [Compound I-13] ; measured pIC50: 5.70 to 6.70

The compound listed as Cc1ccc2c(N)c(C(=O)NC[C@H](C)c3ccc(N4CC5CCC(C4)N5)c(F)c3)sc2n1 (single isomer, unassigned) [Example I-106] shows pIC50 equal to 5.00 to 5.70

The value of pIC50 measured for the compound CCOc1ccc2c(N)c(C(=O)NCCc3ccc(N4CCNCC4)cc3)sc2n1 [Example I-191] turned out to be 5.00 to 5.70

The compound listed as Cc1ccc2c(N)c(C(=O)NCCc3ccc(N4CC[C@@H]5NCC[C@@H]54)cc3)sc2n1 (single isomer, unassigned) [Example I-93] shows pIC50 equal to > 6.70

Recorded pIC50 (compound Cc1ccc2c(N)c(C(=O)NCCc3ccc(N4CC5CCC(C4)N5)cc3)sc2n1 [Compound I-15] ): 5.70 to 6.70

Kindly note the recorded pIC50 for CCNc1ccc2c(N)c(C(=O)NCCc3ccc(N4CCNCC4)cc3)sc2n1 [Example I-188] , which is 5.70 to 6.70

According to the records, this compound Cc1ccc2c(N)c(C(=O)NCCc3ccc(N4CC5CCC(C4)N5)cc3F)sc2n1 [Compound I-22] displays pIC50 of 5.70 to 6.70

---

Hi there, I'd appreciate the recorded IC50 for every entry that follows.

Case Cc1cc(N)nc2sc(C(=O)NCCc3ccc(N4CCNCC4)cc3)c(N)c12 , USP25 (Homo sapiens (Human), UniProt Q9UHP3), IC50 recorded as 200 to 2000 nM

Value (IC50, USP25 (Homo sapiens (Human), UniProt Q9UHP3)) for record CCc1cc(CCNC(=O)c2sc3nc(C)ccc3c2N)ccc1N1CCNCC1 = 200 to 2000 nM

Field IC50 (USP25 (Homo sapiens (Human), UniProt Q9UHP3)), entry CC(C)Nc1ccc2c(N)c(C(=O)NCCc3ccc(N4CCNCC4)cc3)sc2n1 : 2000 to 10000 nM

The reported USP25 (Homo sapiens (Human), UniProt Q9UHP3) IC50 of Cc1nc2sc(C(=O)NC[C@H](C)c3ccc(N4CC5CCC(C4)N5)c(F)c3)c(N)c2cc1F (single isomer, unassigned) is 200 to 2000 nM

Measured on USP25 (Homo sapiens (Human), UniProt Q9UHP3), Cc1ccc2c(N)c(C(=O)NC[C@H](C)c3cc(F)c(N4CC5CCC(C4)N5)cc3F)sc2n1 (single isomer, unassigned) has a documented IC50 of 200 to 2000 nM

// molecule CN(C)c1ccc2c(N)c(C(=O)NCCc3ccc(N4CCNCC4)cc3)sc2n1 , assay USP25 (Homo sapiens (Human), UniProt Q9UHP3), IC50 value: 10000 to 25000 nM

// returns IC50 for Cc1ccc2c(N)c(C(=O)NCCc3ccc(N4CCNCC4)c(-c4cnn(C(F)F)c4)c3)sc2n1 with USP25 (Homo sapiens (Human), UniProt Q9UHP3); value = 10000 to 25000 nM

Tested on USP25 (Homo sapiens (Human), UniProt Q9UHP3): Cc1ccc2c(N)c(C(=O)NCCc3ccc(N4CCNCC4)c(C4CC4)c3)sc2n1 . Observed IC50: 200 to 2000 nM

Summary line: Cc1ccc2c(N)c(C(=O)N[C@H]3C[C@H](c4ccc(N5CCNCC5)cc4)C3)sc2n1 , USP25 (Homo sapiens (Human), UniProt Q9UHP3), reported IC50 = 200 to 2000 nM

Response field IC50 (USP25 (Homo sapiens (Human), UniProt Q9UHP3)) for item Cc1ccc2c(N)c(C(=O)NCCc3ccc(N4CCC5(CCCNC5)C4)cc3)sc2n1 (single isomer, unassigned) : 200 to 2000 nM

# IC50 measured on USP25 (Homo sapiens (Human), UniProt Q9UHP3) for item Cc1ccc2c(N)c(C(=O)N[C@H]3C[C@@H](c4ccc(N5CCNCC5)cc4)C3)sc2n1 = 200 to 2000 nM

Assay USP25 (Homo sapiens (Human), UniProt Q9UHP3), sample Cc1ccc2c(N)c(C(=O)NCCc3ccc(O[C@@H]4COC5(CNC5)C4)cc3)sc2n1 (single isomer, unassigned) , IC50 read: 200 to 2000 nM

The value of IC50 recorded for CN1CCN(c2ccc(CCNC(=O)c3sc4nc(Cl)ccc4c3N)cc2)CC1 when tested on USP25 (Homo sapiens (Human), UniProt Q9UHP3) reads 200 to 2000 nM

---

IC50 tested on USP28 (Homo sapiens (Human), UniProt Q96RU2): recorded values
Sequence (Q96RU2 whole entry): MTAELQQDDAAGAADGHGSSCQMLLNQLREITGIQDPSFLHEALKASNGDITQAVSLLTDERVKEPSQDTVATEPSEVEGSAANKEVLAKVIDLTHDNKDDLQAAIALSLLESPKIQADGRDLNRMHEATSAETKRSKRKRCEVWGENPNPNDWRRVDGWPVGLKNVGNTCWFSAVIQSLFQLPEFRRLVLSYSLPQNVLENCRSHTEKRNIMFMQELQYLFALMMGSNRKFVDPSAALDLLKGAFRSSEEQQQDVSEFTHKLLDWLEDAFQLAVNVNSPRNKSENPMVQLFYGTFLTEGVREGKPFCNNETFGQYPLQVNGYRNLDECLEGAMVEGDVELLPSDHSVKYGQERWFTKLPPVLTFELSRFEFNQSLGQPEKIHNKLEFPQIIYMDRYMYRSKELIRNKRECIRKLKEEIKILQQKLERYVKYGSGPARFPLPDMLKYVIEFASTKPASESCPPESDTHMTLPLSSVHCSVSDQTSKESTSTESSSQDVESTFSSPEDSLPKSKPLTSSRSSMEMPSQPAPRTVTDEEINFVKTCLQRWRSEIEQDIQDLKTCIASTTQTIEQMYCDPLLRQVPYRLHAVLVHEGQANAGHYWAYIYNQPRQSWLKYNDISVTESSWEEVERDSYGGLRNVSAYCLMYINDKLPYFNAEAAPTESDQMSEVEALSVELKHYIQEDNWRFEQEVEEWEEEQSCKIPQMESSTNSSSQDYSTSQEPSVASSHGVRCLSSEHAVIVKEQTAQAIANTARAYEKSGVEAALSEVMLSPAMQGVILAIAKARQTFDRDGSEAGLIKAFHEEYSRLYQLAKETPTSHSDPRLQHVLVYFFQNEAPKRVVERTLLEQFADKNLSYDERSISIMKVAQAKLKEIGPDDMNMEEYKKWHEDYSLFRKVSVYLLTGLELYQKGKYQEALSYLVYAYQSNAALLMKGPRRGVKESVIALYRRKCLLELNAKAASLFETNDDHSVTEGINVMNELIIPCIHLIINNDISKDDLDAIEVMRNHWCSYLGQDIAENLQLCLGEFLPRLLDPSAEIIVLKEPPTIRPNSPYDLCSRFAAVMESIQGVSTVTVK

Field IC50 (entry Cc1ccc2c(N)c(C(=O)NC[C@@H](C)c3cc(F)c(N4CC5CCC(C4)N5)cc3F)sc2n1 (single isomer, unassigned) ) reads 0.2 to 2 µM

Item: Nc1c(C(=O)NCCc2ccc(N3CCNCC3)cc2)sc2nc(C(F)(F)F)ccc12 | IC50: 2 to 10 µM

The recorded IC50 for entry Cc1ccc2c(N)c(C(=O)NCCc3ccc(N4CCNCC4)c(O)c3)sc2n1 equals 0.2 to 2 µM

IC50 for Cc1ccc2c(N)c(C(=O)NC[C@H](C)c3cc(F)c(N4CC5CCC(C4)N5)cc3F)sc2n1 (single isomer, unassigned) is < 0.2 µM

// field: IC50; key: Cc1ccc2c(N)c(C(=O)NCCc3cnc(N4CCNCC4)c(Cl)c3)sc2n1 ; value = 0.2 to 2 µM

Entry Cc1ccc2c(N)c(C(=O)NCCc3ccc(C4CC5CCC(C4)N5)cc3)sc2n1 (single isomer, unassigned) [Example I-171] — recorded IC50 = 0.2 to 2 µM

---

biological target: UniProt Q9UHP3; assay: Ubiquitin-Rhodamine 110 Assay for USP25 Activity; format: biochemical
pIC50: −log10 of the molar value.
Answer each item with its documented pIC50.

So for CN[C@H]1CN(c2cc(F)c(CCNC(=O)c3sc4nc(C)ccc4c3N)cc2F)C[C@@H]1F (single isomer, unassigned) [Example I-214] , the logged pIC50 turned out to be 5.00 to 5.70

Consider Cc1ccc2c(N)c(C(=O)NCCc3ccc(C4CCNCC4)c(F)c3)sc2n1 [Example I-169] . Its measured pIC50 is 5.70 to 6.70

Data point: Cc1nc2sc(C(=O)NCCc3ccc(N4CCNCC4)cc3)c(N)c2cc1N [Example I-198] ; pIC50 = 4.60 to 5.00

Consider Cc1nc2sc(C(=O)NCCc3ccc(N4CCNCC4)cc3)c(N)c2cc1F [Compound I-63] . Its measured pIC50 is 5.70 to 6.70

What the record says about COc1cc(N2CCNCC2)ccc1CCNC(=O)c1sc2nc(C)ccc2c1N [Compound I-2] : pIC50 is > 6.70

Quick note, pIC50 for Cc1cc(C(F)F)nc2sc(C(=O)NCCc3ccc(N4CCNCC4)cc3)c(N)c12 [Compound I-62] landed at > 6.70

get_value(item= Nc1cc(C(F)F)c2c(N)c(C(=O)NCCc3ccc(N4CCNCC4)cc3)sc2n1 [Compound I-16] , readout=pIC50) returns 5.70 to 6.70

Origin of measurements: patent US10913753B2
